Assay: Inhibition of rat intestinal alpha-glucosidase using p-nitrophenyl-alpha-D-glucopyranoside assessed as release of p-nitrophenol after 5 mins by spectrophotometric analysis
pIC50: −log10 of the molar value.
// reported pIC50 per item

molecule | pIC50
CCOc1cc(C(c2c(O)c3cc(C)ccc3oc2=O)c2c(O)c3cc(C)ccc3oc2=O)ccc1O | 3.65
COc1cc(C(c2c(O)c3cc(C)ccc3oc2=O)c2c(O)c3cc(C)ccc3oc2=O)cc(OC)c1OC | 3.41
O=c1oc2ccc(Cl)cc2c(O)c1C(c1cccc(O)c1)c1c(O)c2cc(Cl)ccc2oc1=O | 4.08
COc1cc(C(c2c(O)c3cc(Cl)ccc3oc2=O)c2c(O)c3cc(Cl)ccc3oc2=O)cc(OC)c1OC | 3.89
O=c1oc2ccc(Cl)cc2c(O)c1C(c1ccc(Cl)cc1Cl)c1c(O)c2cc(Cl)ccc2oc1=O | 4.78
CCOc1cc(C(c2c(O)c3cc(Cl)ccc3oc2=O)c2c(O)c3cc(Cl)ccc3oc2=O)ccc1O | 4.24
Cc1ccc2oc(=O)c(C(c3cccc(O)c3)c3c(O)c4cc(C)ccc4oc3=O)c(O)c2c1 | 4.28
Cc1ccc2oc(=O)c(C(c3cccc([N+](=O)[O-])c3)c3c(O)c4cc(C)ccc4oc3=O)c(O)c2c1 | 4.17
C[C@H]1O[C@H](O[C@H]2[C@H](O)[C@@H](O)[C@@H](O[C@H]3[C@H](O)[C@@H](O)C(O)O[C@@H]3CO)O[C@@H]2CO)[C@H](O)[C@@H](O)[C@@H]1N[C@H]1C=C(CO)[C@@H](O)[C@H](O)[C@H]1O (some centres undefined) | 3.04
COc1ccc(C(c2c(O)c3cc(Cl)ccc3oc2=O)c2c(O)c3cc(Cl)ccc3oc2=O)cc1O | 4.08
COc1ccc(C(c2c(O)c3cc(Cl)ccc3oc2=O)c2c(O)c3cc(Cl)ccc3oc2=O)cc1OC | 4.04
Cc1ccc2oc(=O)c(C(c3ccc([N+](=O)[O-])cc3)c3c(O)c4cc(C)ccc4oc3=O)c(O)c2c1 | 4.10
O=c1oc2ccc(Cl)cc2c(O)c1C(c1cccc([N+](=O)[O-])c1)c1c(O)c2cc(Cl)ccc2oc1=O | 4.57
COc1ccc(C(c2c(O)c3cc(C)ccc3oc2=O)c2c(O)c3cc(C)ccc3oc2=O)cc1 | 3.97
COc1cc(C(c2c(O)c3cc(Cl)ccc3oc2=O)c2c(O)c3cc(Cl)ccc3oc2=O)ccc1O | 3.95
CSc1ccc(C(c2c(O)c3cc(C)ccc3oc2=O)c2c(O)c3cc(C)ccc3oc2=O)cc1 | 4.43
O=c1oc2ccc(Cl)cc2c(O)c1C(c1ccccc1[N+](=O)[O-])c1c(O)c2cc(Cl)ccc2oc1=O | 4.09
Cc1ccc2oc(=O)c(C(c3ccccc3[N+](=O)[O-])c3c(O)c4cc(C)ccc4oc3=O)c(O)c2c1 | 3.89
COc1ccc(C(c2c(O)c3cc(Cl)ccc3oc2=O)c2c(O)c3cc(Cl)ccc3oc2=O)cc1 | 4.12
